biological target: Pepsin A (Sus scrofa); assay: In vitro inhibitory activity against porcine pepsin was determined at 10e-5 M
The molecules listed here are annotated with their inhibition.

COMPOUND: COP(=O)(C[C@H](O)[C@H](CC1CCCCC1)NC(=O)[C@H](Cc1c[nH]cn1)NC(=O)[C@H](Cc1ccccc1)NC(=O)CC(C)(C)C)OC
QUANTITY_KIND: inhibition
RESULT: 3%

Prompt: Find inhibition for COP(=O)(C[C@H](O)[C@H](CC1CCCCC1)NC(=O)[C@H](CC(C)C)NC(=O)[C@H](Cc1ccccc1)NC(=O)OC(C)(C)C)OC on Pepsin A (Sus scrofa) and write it down.
Completion: 21%

Prompt: Fill in: inhibition on Pepsin A (Sus scrofa), entry CC(C)(C)OC(=O)N[C@@H](Cc1ccccc1)C(=O)N[C@@H](Cc1c[nH]cn1)C(=O)N[C@@H](CC1CCCCC1)[C@@H](O)CP1(=O)OCCCO1
Completion: 2%

Prompt: Specify the recorded inhibition for CCOC(=O)N[C@@H](Cc1ccccc1)C(=O)N[C@@H](Cc1c[nH]cn1)C(=O)N[C@@H](CC1CCCCC1)[C@@H](O)CP(=O)(OC)OC , system: Pepsin A (Sus scrofa).
Completion: 4%
